Origin of values: ChEMBL document CHEMBL3758153

System: Staphylococcus aureus
Assay: Antibacterial activity against methicillin-resistant Staphylococcus aureus CBD-635 at 35 ug/mL
Assay type: functional, organism-based
The source made the active and inactive calls. The calls are words filed in the database; no cut-off is given here.

molecule | Activity
C[C@@H](O)[C@H]1NC(=O)[C@@H](CC(N)=O)NC(=O)[C@@H](CCCNC(=N)N)NC(=O)[C@H](Cc2c[nH]c3ccccc23)NC(=O)[C@@H](Cc2c[nH]c3ccccc23)NC(=O)C(NC(=O)CCCCCCCCCCCNC(=N)N)CNC1=O (stereo partly drawn) | Active
CC[C@@H](C)[C@H]1NC(=O)[C@H](Cc2ccccc2)NC(=O)[C@@H](CC(C)C)NC(=O)C(NC(=O)CCCCCCCCCCCNC(=N)N)CNC(=O)[C@@H](CCCCN)NC(=O)[C@@H](CC(N)=O)NC1=O (stereo partly drawn) | Active
CC(C)C[C@@H]1NC(=O)[C@@H](CC(C)C)NC(=O)C(NC(=O)CCCCCCCCCCCNC(=N)N)CNC(=O)[C@@H](CCCNC(=N)N)NC(=O)[C@@H](CC(N)=O)NC(=O)[C@@H](CCCCN)NC1=O (stereo partly drawn) | Active
